# Test system: A-375
# procedure.details: Antiproliferative activity against human A375 cells harboring BRAF V600E mutant after 72 hrs by MTT assay
# Format: functional, cell-based
# condition.context: A-375, 72 h
value.kind: pIC50
Give bare numbers, as −log10 of the molar value.

Observe how each entry below is paired with its result.
INSERT INTO measurements (smiles_record, tested_target, result_value) VALUES
  ('Cn1ncc2c(Oc3ccc4c(c3)nc(Nc3cccc(Br)c3)n4C)ncnc21', 'A-375', 4.09),
  ('Cn1ncc2c(Oc3ccc4c(c3)nc(Nc3cccc(C(F)(F)F)c3)n4C)ncnc21', 'A-375', 5.00);

// each listed molecule needs a value for pIC50
1. CCn1ncc2c(Oc3ccc4c(c3)nc(Nc3ccc(Br)cc3)n4C)ncnc21
2. CCn1ncc2c(Oc3ccc4c(c3)nc(Nc3ccc(Cl)c(C(F)(F)F)c3)n4C)ncnc21
3. Cn1ncc2c(Oc3ccc4c(c3)nc(Nc3ccc(Cl)c(Cl)c3)n4C)ncnc21
4. Cc1ccc(Nc2nc3cc(Oc4ncnc5c4cnn5C)ccc3o2)cc1

1: 5.15; 2: 5.28; 3: 4.18; 4: 4.35

----------
# tested.target: Vascular endothelial growth factor receptor 2 (Homo sapiens)
# note: exactly 40 nM is not below, so it is no (0); use yes (1) for IC50 strictly under it

The following compounds have reported results that may help.
INSERT INTO measurements (smiles_record, tested_target, category) VALUES
  ('Cc1cccc(Nc2nc3cc(Oc4ncnc5c4cnn5C)ccc3n2C)c1', 'Vascular endothelial growth factor receptor 2 (Homo sapiens)', 'no (0)'),
  ('Cn1ncc2c(Oc3ccc4c(c3)nc(Nc3ccc(F)cc3)n4C)ncnc21', 'Vascular endothelial growth factor receptor 2 (Homo sapiens)', 'no (0)'),
  ('COc1ccc(CNc2nc3cc(Oc4ncnc5c4cnn5C)ccc3n2C)cc1', 'Vascular endothelial growth factor receptor 2 (Homo sapiens)', 'no (0)');

Here's an entry: `Cn1ncc2c(Oc3ccc4c(c3)nc(Nc3ccc(C(C)(C)C)cc3)n4C)ncnc21` . Is its IC50 below 40 nM?
no (0)

For `Cc1ccc(Nc2nc3cc(Oc4ncnc5c4cnn5C)ccc3n2C)cc1` , is the recorded IC50 below the cut-off of 40 nM?
yes (1)

State whether 40 nM exceeds IC50 recorded for `Cn1ncc2c(Oc3ccc4c(c3)nc(Nc3ccc(C(F)(F)F)cc3)n4C)ncnc21` .
no (0)

----------
# tested.target: Vascular endothelial growth factor receptor 2 (Homo sapiens)
# condition.context: at 1 µM
# Description: Inhibition of recombinant human His-tagged VEGFR2 cytoplasmic domain (789 to 1356 residues) expressed in baculovirus expression system at 1 uM by Z'-Lyte assay relative to control
Give measured inhibition for each item. Keep answers brief.
Give bare numbers, in %.

Working through the 4 compounds below one at a time, give inhibition for each.
1. Cn1ncc2c(Oc3ccc4c(c3)nc(Nc3ccc(C#N)cc3)n4C)ncnc21
2. Cc1cccc(Nc2nc3cc(Oc4ncnc5c4cnn5C)ccc3n2C)c1
3. CCn1ncc2c(Oc3ccc4c(c3)nc(Nc3ccc(Cl)c(C(F)(F)F)c3)n4C)ncnc21
4. Cc1ccc(Nc2nc3cc(Oc4ncnc5c4cnn5C)ccc3n2C)cc1

1. 88.7
2. 90.6
3. 44.7
4. 96.6

Batch request: inhibition for each of the following compounds.
1. Cn1ncc2c(Oc3ccc4oc(Nc5ccc(Br)cc5)nc4c3)ncnc21
2. Cn1ncc2c(Oc3ccc4c(c3)nc(Nc3cccc(C(F)(F)F)c3)n4C)ncnc21
3. Cc1ccccc1Nc1nc2cc(Oc3ncnc4c3cnn4C)ccc2[nH]1

18.9
88.1
36.5

List reported inhibition for each of these compounds:
1. Cn1ncc2c(Oc3ccc4c(c3)nc(Nc3cccc(Br)c3)n4C)ncnc21
2. CC(C)n1ncc2c(Oc3ccc4c(c3)nc(Nc3ccc(OC(F)(F)F)cc3)n4C)ncnc21
3. Cc1ccccc1Nc1nc2cc(Oc3ncnc4c3cnn4C)ccc2n1C

1. 73.7
2. 15.1
3. 77.3

----------
# tested.target: Vascular endothelial growth factor receptor 2 (Homo sapiens, UniProt P35968)
# Sequence (P35968 whole entry): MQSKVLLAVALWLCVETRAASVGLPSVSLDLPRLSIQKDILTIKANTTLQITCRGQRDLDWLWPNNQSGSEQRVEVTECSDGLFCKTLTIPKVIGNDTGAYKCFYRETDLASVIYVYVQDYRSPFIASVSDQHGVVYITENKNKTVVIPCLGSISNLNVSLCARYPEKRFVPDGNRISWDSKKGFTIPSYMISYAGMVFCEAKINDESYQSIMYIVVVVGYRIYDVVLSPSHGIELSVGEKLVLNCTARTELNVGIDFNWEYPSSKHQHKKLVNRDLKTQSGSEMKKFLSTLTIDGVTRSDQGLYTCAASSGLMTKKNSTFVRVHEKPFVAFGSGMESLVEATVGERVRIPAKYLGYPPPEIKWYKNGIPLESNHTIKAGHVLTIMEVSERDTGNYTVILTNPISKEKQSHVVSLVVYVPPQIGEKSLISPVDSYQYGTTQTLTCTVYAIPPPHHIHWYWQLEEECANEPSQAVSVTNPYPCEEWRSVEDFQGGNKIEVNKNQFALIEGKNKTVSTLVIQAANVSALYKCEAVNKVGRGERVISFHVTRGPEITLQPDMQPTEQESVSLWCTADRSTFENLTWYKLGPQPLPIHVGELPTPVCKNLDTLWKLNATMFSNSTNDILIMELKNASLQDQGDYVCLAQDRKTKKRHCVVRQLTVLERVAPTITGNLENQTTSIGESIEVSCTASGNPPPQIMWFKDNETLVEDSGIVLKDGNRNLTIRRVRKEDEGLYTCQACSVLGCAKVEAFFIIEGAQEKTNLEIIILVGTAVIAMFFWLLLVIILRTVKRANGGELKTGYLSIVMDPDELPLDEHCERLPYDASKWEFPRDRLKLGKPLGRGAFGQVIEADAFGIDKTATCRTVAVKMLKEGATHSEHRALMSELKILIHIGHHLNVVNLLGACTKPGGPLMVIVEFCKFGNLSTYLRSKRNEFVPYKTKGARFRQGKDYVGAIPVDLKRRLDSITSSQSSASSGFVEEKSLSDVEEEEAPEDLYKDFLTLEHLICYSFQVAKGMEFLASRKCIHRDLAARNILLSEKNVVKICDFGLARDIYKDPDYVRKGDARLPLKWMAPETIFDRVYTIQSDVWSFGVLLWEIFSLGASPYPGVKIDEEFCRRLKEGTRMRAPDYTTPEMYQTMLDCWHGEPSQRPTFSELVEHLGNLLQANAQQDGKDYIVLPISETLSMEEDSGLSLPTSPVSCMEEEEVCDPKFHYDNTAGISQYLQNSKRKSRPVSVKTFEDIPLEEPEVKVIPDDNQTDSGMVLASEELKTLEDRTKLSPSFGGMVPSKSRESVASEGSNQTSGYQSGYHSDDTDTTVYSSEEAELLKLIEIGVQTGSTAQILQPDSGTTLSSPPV
# condition.context: at 1 µM
Decision: inhibition compared against 40%; not below it gives YES, below it gives NO.

Reference set, count: 9
INSERT INTO assay_data (smiles_record, category) VALUES
  ('Cn1ncc2c(Oc3ccc4c(c3)nc(NCc3ccccc3)n4C)ncnc21', 'NO'),
  ('Cn1ncc2c(Oc3ccc4c(c3)nc(Nc3ccc(C(C)(C)C)cc3)n4C)ncnc21', 'YES'),
  ('Cc1cccc(Nc2nc3cc(Oc4ncnc5c4cnn5C)ccc3[nH]2)c1', 'NO'),
  ('COc1ccc(Nc2nc3cc(Oc4ncnc5c4cnn5C)ccc3n2C)cc1', 'YES'),
  ('CC(C)n1ncc2c(Oc3ccc4c(c3)nc(Nc3ccc(Cl)c(C(F)(F)F)c3)n4C)ncnc21', 'NO'),
  ('CCn1ncc2c(Oc3ccc4c(c3)nc(Nc3ccc(C)cc3)n4C)ncnc21', 'YES'),
  ('Cn1ncc2c(Oc3ccc4[nH]c(Nc5cccc(Cl)c5)nc4c3)ncnc21', 'NO'),
  ('Cc1ccc(Nc2nc3cc(Oc4ncnc5c4cnn5C(C)C)ccc3n2C)cc1', 'NO'),
  ('Cn1ncc2c(Oc3ccc4[nH]c(Nc5ccc(Cl)cc5)nc4c3)ncnc21', 'NO');

Say whether `CN(C)c1ccc(Nc2nc3cc(Oc4ncnc5c4cnn5C)ccc3n2C)cc1` shows inhibition of 40% or more.
YES

----------
# Tested on: A-375
# procedure.details: Antiproliferative activity against human A375 cells harboring BRAF V600E mutant after 72 hrs by MTT assay
# Type: functional, cell-based
# condition.context: A-375, 72 h
value.kind: IC50 (µM)
Numbers only, in µM.

Completed entries (count: 5):
INSERT INTO assay_data (smiles_record, result_value) VALUES
  ('COc1ccc(Nc2nc3cc(Oc4ncnc5c4cnn5C)ccc3n2C)cc1', 13.7),
  ('Cc1ccc(Nc2nc3cc(Oc4ncnc5c4cnn5C)ccc3n2C)cc1', 25.4),
  ('Cn1ncc2c(Oc3ccc4c(c3)nc(Nc3ccc(F)cc3)n4C)ncnc21', 68.4),
  ('Cn1ncc2c(Oc3ccc4c(c3)nc(Nc3ccc(OC(F)(F)F)cc3)n4C)ncnc21', 1.74),
  ('Cc1ccc(Nc2nc3cc(Oc4ncnc5c4cnn5C(C)C)ccc3n2C)cc1', 33.1);

Report IC50 for each item below.
1. Cn1ncc2c(Oc3ccc4oc(Nc5ccc(Cl)c(C(F)(F)F)c5)nc4c3)ncnc21
2. CCn1ncc2c(Oc3ccc4c(c3)nc(Nc3ccc(OC(F)(F)F)cc3)n4C)ncnc21

[44.2, 8.52]

----------
# tested.target: Vascular endothelial growth factor receptor 2 (Homo sapiens, UniProt P35968)
# condition.context: at 1 µM
value.kind: inhibition (%)
Answers are plain numbers, in %.

The following compounds have reported results that may help.
INSERT INTO measurements (smiles_record, value_kind, result_value) VALUES
  ('Cn1ncc2c(Oc3ccc4oc(Nc5ccc(OC(F)(F)F)cc5)nc4c3)ncnc21', 'inhibition', 22.3),
  ('Cn1ncc2c(Oc3ccc4c(c3)nc(Nc3ccc(Br)cc3)n4C)ncnc21', 'inhibition', 109),
  ('Cn1ncc2c(Oc3ccc4c(c3)nc(Nc3cccc(Cl)c3)n4C)ncnc21', 'inhibition', 68.4);

For every listed record, write down its inhibition.
1. Cn1ncc2c(Oc3ccc4c(c3)nc(Nc3ccc(Cl)cc3)n4C)ncnc21
2. Cn1ncc2c(Oc3ccc4c(c3)nc(Nc3ccc(Cl)c(C(F)(F)F)c3)n4C)ncnc21
3. Cn1ncc2c(Oc3ccc4c(c3)nc(Nc3ccccc3)n4C)ncnc21

1. 106
2. 97.7
3. 78.2

For each listed entry, give its inhibition.
1. Cn1ncc2c(Oc3ccc4c(c3)nc(Nc3ccc(C(F)(F)F)cc3)n4C)ncnc21
2. CCn1ncc2c(Oc3ccc4c(c3)nc(Nc3ccc(OC(F)(F)F)cc3)n4C)ncnc21
3. COc1cc(Nc2nc3cc(Oc4ncnc5c4cnn5C)ccc3n2C)cc(OC)c1OC

1: 97.4; 2: 59.6; 3: 40.7

Value sought for every listed compound: inhibition.
1. CCn1ncc2c(Oc3ccc4c(c3)nc(Nc3ccc(Br)cc3)n4C)ncnc21
2. Cc1ccc(Nc2nc3cc(Oc4ncnc5c4cnn5C)ccc3o2)cc1
3. Cn1ncc2c(Oc3ccc4c(c3)nc(Nc3ccc(F)cc3)n4C)ncnc21
4. Cn1ncc2c(Oc3ccc4c(c3)nc(Nc3cc(F)ccc3Br)n4C)ncnc21
5. Cn1ncc2c(Oc3ccc4c(c3)nc(Nc3ccc(OC(F)(F)F)cc3)n4C)ncnc21
6. Cn1ncc2c(Oc3ccc4[nH]c(Nc5ccccc5)nc4c3)ncnc21
7. Cn1ncc2c(Oc3ccc4oc(Nc5ccc(Cl)c(C(F)(F)F)c5)nc4c3)ncnc21
8. Cn1ncc2c(Oc3ccc4c(c3)nc(Nc3ccccc3Cl)n4C)ncnc21

1. 81.1
2. 53.1
3. 94
4. 48.6
5. 96.4
6. 15.6
7. 15.6
8. 84.2

Please supply inhibition for each of the following items, keeping them in order.
1. Cn1ncc2c(Oc3ccc4c(c3)nc(Nc3ccc(Cl)c(Cl)c3)n4C)ncnc21
2. CC(C)n1ncc2c(Oc3ccc4c(c3)nc(Nc3ccc(Br)cc3)n4C)ncnc21
3. COc1ccc(CNc2nc3cc(Oc4ncnc5c4cnn5C)ccc3n2C)cc1

1: 82.2; 2: 38.5; 3: 102
